- subjectOfTest: SARS-CoV-2 Mac1 (Severe acute respiratory syndrome coronavirus 2, UniProt P0DTD1)
- experiment: biochemical
- details: read-out: %inhibition
Structures can show the parent of a compound that is named as a salt.
Measured inhibition at 100 µM of individual entries
Numeric only. Scale: %

Some entries whose results are on file:
[[record]]
compound = "CC#CC(=O)N1CCC[C@H]1c1nc(-c2ccc(C(=O)Nc3ccccn3)cc2)c2c(N)nccn12"
measuredquantity = "inhibition at 100 µM"
u = "%"
testvalue = 9.75

[[record]]
compound = "CC(=O)Oc1cc(C(F)(F)F)ccc1C(=O)O"
measuredquantity = "inhibition at 100 µM"
u = "%"
testvalue = 5.82

[[record]]
compound = "CC1(C)S[C@@H]2[C@H](NC(=O)[C@H](NC(=O)N3CCNC3=O)c3ccccc3)C(=O)N2[C@H]1C(=O)O [Azlocillin sodium salt]"
measuredquantity = "inhibition at 100 µM"
u = "%"
testvalue = 0


stdin: Query inhibition at 100 µM for "Oc1ncnc2[nH]ncc12"
stdout: 0

stdin: Tell us which inhibition at 100 µM value is on record for COc1cc(NC(C)CCCN)c2ncccc2c1 (stereo not drawn) [Primaquine Diphosphate]
stdout: 5.42

stdin: For the compound "COc1ccccc1O" , give its measured inhibition at 100 µM value.
stdout: 0

----------
- subjectOfTest: SARS-CoV-2 Mac1 (Severe acute respiratory syndrome coronavirus 2)
- experiment: biochemical
- details: read-out: %inhibition
Counter-ions that a name gives are not always drawn.
measuredQuantity: inhibition at 100 µM (%)
Answer with a number only, understood to be in %.

Here is how some molecules turned out for inhibition at 100 µM.
[[record]]
molecule = "CNCCCN1c2ccccc2CCc2ccccc21 [Desipramine Hydrochloride]"
testvalue = 15.3

[[record]]
molecule = "O=C(O)COCCN1CCN(C(c2ccccc2)c2ccc(Cl)cc2)CC1 (stereo not drawn) [Cetirizine DiHCl]"
testvalue = 1.2

[[record]]
molecule = "Cc1oncc1C(=O)Nc1ccc(C(F)(F)F)cc1 [Leflunomide]"
testvalue = 22.5


stdin: Please report the measured inhibition at 100 µM for S=c1[nH]cnc2nc[nH]c12 [Mercaptopurine (6-MP)]
stdout: 19.8

stdin: Name the recorded inhibition at 100 µM of the molecule listed here: CCOC(=O)[C@H](CCc1ccccc1)N[C@@H](C)C(=O)N1CCC[C@H]1C(=O)O [Enalapril Maleate]
stdout: 16.8

stdin: Query inhibition at 100 µM for Cc1c(O)cccc1C(=O)N[C@@H](CSc1ccccc1)[C@H](O)CN1C[C@H]2CCCC[C@H]2C[C@H]1C(=O)NC(C)(C)C [Nelfinavir Mesylate]
stdout: 0.155

----------
- subjectOfTest: SARS-CoV-2 Mac1 (Severe acute respiratory syndrome coronavirus 2)
- experiment: biochemical
- details: read-out: %inhibition
compounds and their reported inhibition at 100 µM
Please give the number followed by its unit.

[[record]]
compound = "Cc1onc(-c2ccccc2Cl)c1C(=O)N[C@@H]1C(=O)N2[C@@H]1SC(C)(C)[C@@H]2C(=O)O [Cloxacillin Sodium]"
testvalue = "9.79%"


stdin: Read the entry "Oc1cc(O)c(Cl)cn1" and write its reported inhibition at 100 µM.
stdout: 0%

stdin: // Input: Cc1ccccc1OCC(O)CO (stereo not drawn) . Output its inhibition at 100 µM only.
stdout: 7.81%

stdin: Identify measured inhibition at 100 µM associated with CCC(=O)OCC(=O)[C@@]1(OC(=O)CC)[C@@H](C)C[C@H]2[C@@H]3CCC4=CC(=O)C=C[C@]4(C)[C@@]3(F)[C@@H](O)C[C@@]21C [Betamethasone Dipropionate]
stdout: 5.5%

stdin: Answer with the recorded inhibition at 100 µM for the compound listed here: Cc1cc(O)c(C(=O)N[C@@H](C(=O)N[C@@H]2C(=O)N3C(C(=O)O)=C(CSc4nnnn4C)CS[C@H]23)c2ccc(O)cc2)cn1 [Cefpiramide sodium]
stdout: 0%
